Source of measurements: ChEMBL document CHEMBL1144736

measured target: 17-beta-hydroxysteroid dehydrogenase type 1 (Homo sapiens)
assay info: Inhibition of 17beta-HSD1 expressed in intact human T47D cells at 1 uM after 30 mins
Type: cell-based
Give inhibition for every item shown.

Field: inhibition (17-beta-hydroxysteroid dehydrogenase type 1 (Homo sapiens)). Entry: CCc1cc(-c2ccc(C(=O)CCC(=O)NCc3cccnc3)c(C)c2)ccc1O 21%

Give 17-beta-hydroxysteroid dehydrogenase type 1 (Homo sapiens) inhibition for CCc1cc(-c2ccc(C(=O)CCC(=O)NCCc3cccnc3)cc2)ccc1O 17%

Request - read-out inhibition | tested on 17-beta-hydroxysteroid dehydrogenase type 1 (Homo sapiens) | compound CCc1cc(-c2ccc(C(=O)CC(C)(C)C(=O)NCc3cccnc3)cc2)ccc1OC 17%

Test system 17-beta-hydroxysteroid dehydrogenase type 1 (Homo sapiens); read-out inhibition; what value for CCc1cc(-c2ccc(C(=O)CCC(=O)NCc3cccnc3)cc2)ccc1O ? 24%

GET /values?readout=inhibition&system=17-beta-hydroxysteroid dehydrogenase type 1 (Homo sapiens)&item= CCc1cc(-c2ccc3c(c2)CC(CC(=O)NCc2cccnc2)C3=O)ccc1O (centres undefined) 39%

Notebook entry, 17-beta-hydroxysteroid dehydrogenase type 1 (Homo sapiens) assay: inhibition of CCc1cc(-c2ccc(C(=O)CC(C)(C)C(=O)NCc3cccnc3)cc2)ccc1O = ? 38%

Provide the documented inhibition with 17-beta-hydroxysteroid dehydrogenase type 1 (Homo sapiens) as the system for CCc1cc(-c2ccc(C(=O)CCC(=O)NCCc3cccnc3)c(C)c2)ccc1O 15%

Find the measured inhibition: item CCc1cc(-c2ccc(C(=O)CC(C)(C)C(=O)NCCc3cccnc3)cc2)ccc1O , target or system 17-beta-hydroxysteroid dehydrogenase type 1 (Homo sapiens). 15%

Query the reported inhibition for 17-beta-hydroxysteroid dehydrogenase type 1 (Homo sapiens); item: CCc1cc(-c2ccc(C(=O)CCC(=O)NCCO)cc2)ccc1O 23%

---

measured target: 17-beta-hydroxysteroid dehydrogenase type 2 (Homo sapiens) (UniProt P37059)
Sequence (P37059 whole entry): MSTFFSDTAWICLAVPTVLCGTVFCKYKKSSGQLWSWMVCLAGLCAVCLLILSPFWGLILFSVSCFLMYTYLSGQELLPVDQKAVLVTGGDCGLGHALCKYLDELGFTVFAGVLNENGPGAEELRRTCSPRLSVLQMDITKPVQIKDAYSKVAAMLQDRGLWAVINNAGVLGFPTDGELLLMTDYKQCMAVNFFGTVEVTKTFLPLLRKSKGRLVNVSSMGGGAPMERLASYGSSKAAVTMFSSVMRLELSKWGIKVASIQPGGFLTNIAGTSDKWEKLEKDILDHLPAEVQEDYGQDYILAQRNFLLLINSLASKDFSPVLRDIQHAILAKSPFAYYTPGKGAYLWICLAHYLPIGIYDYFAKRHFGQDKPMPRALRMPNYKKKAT
assay info: Inhibition of 17beta-HSD2 expressed in intact human MDA-MB-231 cells at 10 uM after 3 hrs
Assay type: cell-based
Label TRUE when inhibition >= 20%; otherwise FALSE.

Hi, just wondering whether CCc1cc(-c2ccc(C(C)=O)cc2)ccc1O shows inhibition of 20% or higher. TRUE

Please tell me: is the compound CCc1cc(-c2ccc(C(=O)CCC(=O)NCc3cccnc3)cc2)ccc1O at or over 20% in terms of inhibition? FALSE

Could you tell me if the measured inhibition of CCc1cc(-c2ccc3c(c2)CCC3=O)ccc1O reaches 20% or more? TRUE

Is the recorded value of inhibition equal to or greater than 20% for this compound? O=C1CCc2cc(-c3ccc(O)cc3)ccc21 FALSE

Textbook exercise: given the entry O=C1CCc2cc(-c3ccc(O)c(F)c3)ccc21 , state whether its inhibition is greater than or equal to 20%. TRUE

---

measured target: 17-beta-hydroxysteroid dehydrogenase type 1 (Homo sapiens) (UniProt P14061)
assay info: Inhibition of 17beta-HSD1 expressed in intact human T47D cells at 10 uM after 30 mins
Format: cell-based
Values of inhibition greater than or equal to 70% map to YES; values below map to NO.

Test whether the compound O=C1CCc2cc(-c3ccc(O)cc3)ccc21 records inhibition of 70% or higher. YES

API: above_or_equal(metric=inhibition, cutoff=70%) for item COc1ccc(-c2ccc3c(c2)CCC3=O)cc1F NO

Could you tell me if the measured inhibition of CCc1cc(-c2ccc3c(c2)CCC3=O)ccc1O reaches 70% or more? YES

For this compound, is measured inhibition 70% or higher? O=C1CCc2cc(-c3ccc(O)c(F)c3)ccc21 YES

Hello, I need to know if CC(=O)c1ccc(-c2ccc(O)cc2)cc1 has measured inhibition not below 70%. Thanks! YES

Is inhibition at least 70%? Consider CC(=O)c1ccc2c(c1)Cc1cc(O)ccc1-2 YES

I'd appreciate it if you could say whether O=C1CCCc2cc(-c3ccc(O)cc3)ccc21 has inhibition at least equal to 70%. YES

hey, is inhibition for this one >= 70%? CCc1cc(-c2ccc(C(C)=O)cc2)ccc1O YES

Please tell me: is the compound CCc1cc(-c2ccc3c(c2)CCCC3=O)ccc1O at or over 70% in terms of inhibition? NO

---

Kindly supply the reported pIC50 values for the records listed here.
measured target: 17-beta-hydroxysteroid dehydrogenase type 1 (Homo sapiens, UniProt P14061)
Sequence (P14061 whole entry): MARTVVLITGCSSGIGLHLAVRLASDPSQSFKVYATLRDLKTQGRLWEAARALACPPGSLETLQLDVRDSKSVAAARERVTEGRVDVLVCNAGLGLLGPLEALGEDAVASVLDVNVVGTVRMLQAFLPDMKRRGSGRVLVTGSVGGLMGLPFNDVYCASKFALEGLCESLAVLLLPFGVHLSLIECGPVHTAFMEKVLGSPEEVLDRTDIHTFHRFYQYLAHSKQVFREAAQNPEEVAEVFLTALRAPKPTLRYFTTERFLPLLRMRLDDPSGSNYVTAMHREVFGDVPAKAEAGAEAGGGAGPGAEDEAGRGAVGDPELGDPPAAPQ
assay info: Inhibition of 17beta-HSD1 expressed in intact human T47D cells after 30 mins
Schema: pIC50 number; meaning minus log10 of the concentration expressed in molar units.

Test system 17-beta-hydroxysteroid dehydrogenase type 1 (Homo sapiens, UniProt P14061); read-out pIC50; what value for CCc1cc(-c2ccc(C(C)=O)cc2)ccc1O ? 5.27

Write down the reported pIC50 of O=C1CCCc2cc(-c3ccc(O)cc3)ccc21 , test system: 17-beta-hydroxysteroid dehydrogenase type 1 (Homo sapiens, UniProt P14061). 4.81

Please state recorded pIC50 (tested on 17-beta-hydroxysteroid dehydrogenase type 1 (Homo sapiens, UniProt P14061)) of O=C1CCc2cc(-c3ccc(O)c(F)c3)ccc21 5.54

Please state recorded pIC50 (tested on 17-beta-hydroxysteroid dehydrogenase type 1 (Homo sapiens, UniProt P14061)) of O=C1CCc2cc(-c3ccc(O)cc3)ccc21 5.77

Lab note: need pIC50 for CCc1cc2c(cc1O)CC[C@@H]1[C@@H]2CC[C@]2(C)C(=O)[C@@H](CC(=O)NCc3cccnc3)C[C@@H]12 on 17-beta-hydroxysteroid dehydrogenase type 1 (Homo sapiens, UniProt P14061), anyone have it? 7.57

Query the reported pIC50 for 17-beta-hydroxysteroid dehydrogenase type 1 (Homo sapiens, UniProt P14061); item: CCc1cc(-c2ccc3c(c2)CCCC3=O)ccc1OC 5.08

Give recorded pIC50 with 17-beta-hydroxysteroid dehydrogenase type 1 (Homo sapiens, UniProt P14061) for the following compound: CC(=O)c1ccc(-c2ccc(O)cc2)cc1 5.43

Observed pIC50 on 17-beta-hydroxysteroid dehydrogenase type 1 (Homo sapiens, UniProt P14061) for CCc1cc(-c2ccc(C(=O)CC(C)(C)C(=O)NCc3cccnc3)cc2)ccc1O , please. 5.74

# query: pIC50 | item CCc1cc(-c2ccc(C(=O)CCC(=O)NCc3cccnc3)cc2)ccc1O | system: 17-beta-hydroxysteroid dehydrogenase type 1 (Homo sapiens, UniProt P14061) 5.43

Provide the documented pIC50 with 17-beta-hydroxysteroid dehydrogenase type 1 (Homo sapiens, UniProt P14061) as the system for CCc1cc(-c2ccc(O)cc2)ccc1C(C)=O 5.00

Write down the reported pIC50 of CC(=O)c1ccc(-c2ccc(O)cc2C)cc1 , test system: 17-beta-hydroxysteroid dehydrogenase type 1 (Homo sapiens, UniProt P14061). 5.43

For the record CCc1cc(-c2ccc3c(c2)CC(CC(=O)NCc2cccnc2)C3=O)ccc1O (centres undefined) , what value of pIC50 is listed for 17-beta-hydroxysteroid dehydrogenase type 1 (Homo sapiens, UniProt P14061)? 5.33

Reported pIC50 for 17-beta-hydroxysteroid dehydrogenase type 1 (Homo sapiens, UniProt P14061), given CCc1cc(-c2ccc3c(c2)CCC3=O)ccc1O ? 5.70

Find pIC50 (17-beta-hydroxysteroid dehydrogenase type 1 (Homo sapiens, UniProt P14061)) for the entry CC(=O)c1ccc2c(c1)Cc1cc(O)ccc1-2 5.32
